Cited source: BigSolDB 2.1

Settings: in methanol, 278.15 K
Measure: solubility (mole fraction)
Respond numerically, and do not add a unit to the figure.

Q: Respond only with solubility (mole fraction) recorded for O=[N+]([O-])c1ccc(O)c2ncccc12
A: 0.000443

---

Conditions: in toluene, 303.15 K
Measure: solubility (mole fraction)
// response body must contain only the number

Q: Return solubility (mole fraction) (reported value) for this molecule: O=[N+]([O-])c1ccc(O)c2ncccc12
A: 0.00518

---

Conditions: in acetone, 283.15 K
Measure: solubility (mole fraction)
Answer using only a numeral; do not append any unit.

Q: // fetch solubility (mole fraction) given entry O=[N+]([O-])c1ccc(O)c2ncccc12
A: 0.00461

---

Conditions: in ethanol, 278.15 K
Measure: solubility (mole fraction)
Give the figure by itself; no unit, no explanation.

Q: Fill in solubility (mole fraction) for record O=[N+]([O-])c1ccc(O)c2ncccc12
A: 0.000575

---

Settings: in ethyl acetate, 278.15 K
Measure: solubility (mole fraction)

Q: Please supply the value of reported solubility (mole fraction) for the item O=[N+]([O-])c1ccc(O)c2ncccc12
A: 0.00339

---

Conditions: in n-butanol, 310.65 K
Measure: solubility (mole fraction)

Q: Check the records and state solubility (mole fraction) for O=[N+]([O-])c1ccc(O)c2ncccc12
A: 0.00197

---

Details: in toluene, 310.65 K
Measure: solubility (mole fraction)

Q: // Input: O=[N+]([O-])c1ccc(O)c2ncccc12 . Output its solubility (mole fraction) only.
A: 0.0066

---

Conditions: in n-butanol, 313.15 K
Measure: solubility (mole fraction)
Would you mind answering with just the numeric figure?

Q: Give a short answer stating reported solubility (mole fraction) for O=[N+]([O-])c1ccc(O)c2ncccc12 .
A: 0.00217

---

Conditions: in isopropanol, 300.65 K
Measure: solubility (mole fraction)

Q: Retrieve solubility (mole fraction) measured for O=[N+]([O-])c1ccc(O)c2ncccc12 and print it.
A: 0.00118

---

Details: in toluene, 308.15 K
Measure: solubility (mole fraction)
// return just the number, without any unit appended

Q: Determine its reported solubility (mole fraction): O=[N+]([O-])c1ccc(O)c2ncccc12
A: 0.00609

---

Conditions: in ethyl acetate, 288.15 K
Measure: solubility (mole fraction)
Lab note: record the figure alone, no unit after it.

Q: Output solubility (mole fraction) of O=[N+]([O-])c1ccc(O)c2ncccc12
A: 0.00476

---

Details: in acetonitrile, 308.15 K
Measure: solubility (mole fraction)
Give the figure by itself; no unit, no explanation.

Q: For the compound O=[N+]([O-])c1ccc(O)c2ncccc12 , give its measured solubility (mole fraction) value.
A: 0.00334

---

Details: in methanol, 283.15 K
Measure: solubility (mole fraction)

Q: Please indicate solubility (mole fraction) recorded for O=[N+]([O-])c1ccc(O)c2ncccc12
A: 0.000531

---

Settings: in isopropanol, 285.65 K
Measure: solubility (mole fraction)
Form rule: numeric answer, no unit written next to it.

Q: Input O=[N+]([O-])c1ccc(O)c2ncccc12 , output reported solubility (mole fraction).
A: 0.000672

---

Settings: in n-propanol, 298.15 K
Measure: solubility (mole fraction)
Simply state the number, no unit and no words.

Q: Tell us which solubility (mole fraction) value is on record for O=[N+]([O-])c1ccc(O)c2ncccc12
A: 0.00119

---

Conditions: in acetic acid, 305.65 K
Measure: solubility (mole fraction)
Please reply with the value in numeric form only.

Q: Output solubility (mole fraction) of O=[N+]([O-])c1ccc(O)c2ncccc12
A: 0.0052
